# Tested on: subclones of RKO colon adenocarcinoma cells (RKOp27 or RKOp21) arrested by Ponasterone A
# Test description: Alamar Blue cell viability assay, cell cycle specific mode of action: cells arrested by ectopic p27Kip1 induced by Ponasterone A versus proliferating cells
# Assay type: cell-based
# Experimental setup: Homo sapiens, RKO p27 induced (arrested) cells, 10 μM Ponasterone A, 72 hours, value = class bound given in Table A, read-out: −logIC50 RKO p27 induced (arrested) (converted)
# Description: To determine the cell cycle specific mode of action, subclones of RKO colon adenocarcinoma cells (RKOp27 or RKOp21 as described by Schmidt et al. in Oncogene 19, 2423-2429; 2000) are seeded into 96 well flat bottom plates at a density of 15000 cells per well in a volume of 50 μl per well in DMEM growth medium with 10% FCS containing 10 μM Ponasterone A. 24 hours after seeding the 50 μl each of the compound dilutions in DMEM medium are added into each well of the 96 Well plate. […]
Measurement label: IC50

// below: answered compounds
Compound | Result
COc1cccc(C(C)CC(=O)Nc2sc3c(c2C#N)CCC(COC(=O)NC2CCOCC2)C3)c1 (centres unmarked) | ≥ 50.1 µM
COc1cccc(CCC(=O)Nc2sc3c(c2C#N)CCC(OC(=O)NC2CCOCC2)C3)c1 (centres unmarked) | ≥ 100 µM
CN(C)C(=O)OC1CCc2c(sc(NC(=O)/C=C/c3cccnc3)c2C#N)C1 (centres unmarked) | ≥ 100 µM
CCNC(=O)OC1CCc2c(sc(NC(=O)CCc3cccc(OC)c3)c2C#N)C1 (centres unmarked) | ≥ 100 µM
COc1cccc(CCC(=O)Nc2sc3c(c2C#N)CCC(COC(=O)NCc2cn(C)cn2)C3)c1 (centres unmarked) | ≥ 100 µM
Cc1nocc1CNC(=O)OCC1CCc2c(sc(NC(=O)/C=C/c3cccnc3)c2C#N)C1 (centres unmarked) | ≥ 100 µM
CC(CC(=O)Nc1sc2c(c1C#N)CCC(OC(=O)NCc1ccno1)C2)c1ccccc1 (centres unmarked) | ≥ 50.1 µM

As a next step, examine the compound that follows.
Input COC[C@@H]1CCCN1C(=O)OCC1CCc2c(sc(NC(=O)/C=C/c3cccnc3)c2C#N)C1 (some centres unmarked) . Output IC50: ≥ 100 µM
